Data origin: the supplement of paper PMC11061612

System: WM278 (Melanoma);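 note: after 72 h of two-drug dosing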
assay-details: Bliss excess, mean over the matrix (fraction); higher = more synergy
quantity-kind: Bliss excess
One number for each entry.

Look over these answered cases.
molecule: COc1nnc2ccc(N3CCC(c4ccc(OCCN5CCN(C)C(=O)[C@H]5C)cc4)CC3)nn12 [AZD5153] + CCN(CCO)CCCOc1ccc2c(Nc3cc(CC(=O)Nc4cccc(F)c4)[nH]n3)ncnc2c1 [AZD2811] (first compound max 1 µM, 7x7, partner max 1 µM)
measured-on: WM278 (Melanoma)
Bliss excess: -0.0654
--
molecule: NC1(C(=O)N[C@@H](CCO)c2ccc(Cl)cc2)CCN(c2ncnc3[nH]ccc23)CC1 [Capivasertib] + C[C@@H]1COCCN1C2=NC(=NC(=C2)C3(CC3)[S@](=N)(=O)C)C4=C5C=CNC5=NC=C4 [AZD6738] (first compound max 10 µM, 7x7, partner max 10 µM)
measured-on: WM278 (Melanoma)
Bliss excess: -0.0637
--
molecule: CCc1c2c(nc3ccc(O)cc13)-c1cc3c(c(=O)n1C2)COC(=O)[C@]3(O)CC [SN-38] + CN(C)CCCOc1ccc(-c2ccc3ncc4c(c3c2)n(C2CCOCC2)c(=O)n4C)cn1 [AZD0156] (first compound max 0.3 µM, 7x7, partner max 1 µM)
measured-on: WM278 (Melanoma)
Bliss excess: 0.042

List Bliss excess for every entry below, keeping the order given.
1. COc1nnc2ccc(N3CCC(c4ccc(OCCN5CCN(C)C(=O)[C@H]5C)cc4)CC3)nn12 [AZD5153] + C=CCn1c(=O)c2cnc(Nc3ccc(N4CCN(C)CC4)cc3)nc2n1-c1cccc(C(C)(C)O)n1 [AZD1775] (first compound max 1 µM, partner max 1 µM)
2. CC(=O)c1c(C)c2cnc(Nc3ccc(N4CCNCC4)cn3)nc2n(C2CCCC2)c1=O [Palbociclib] + CN(CC[C@H](CSC1=CC=CC=C1)NC2=C(C=C(C=C2)S(=O)(=O)NC(=O)C3=CC=C(C=C3)N4CCC(CC4)[C@H](C5=CC=CC=C5C6=CC=C(C=C6)Cl)O)S(=O)(=O)C(F)(F)F)CCO [AZD4320] (first compound max 10 µM, 7x7, partner max 1 µM)

1. -0.0364
2. -0.106

For each of the items listed, what is its Bliss excess?
1. COc1nnc2ccc(N3CCC(c4ccc(OCCN5CCN(C)C(=O)[C@H]5C)cc4)CC3)nn12 [AZD5153] + C[C@@H]1COCCN1C2=NC(=NC(=C2)C3(CC3)[S@](=N)(=O)C)C4=C5C=CNC5=NC=C4 [AZD6738] (first compound max 1 µM, 7x7, partner max 10 µM)
2. CCN(CCO)CCCOc1ccc2c(Nc3cc(CC(=O)Nc4cccc(F)c4)[nH]n3)ncnc2c1 [AZD2811] + C=CCn1c(=O)c2cnc(Nc3ccc(N4CCN(C)CC4)cc3)nc2n1-c1cccc(C(C)(C)O)n1 [AZD1775] (first compound max 1 µM, partner max 1 µM)

[0.0507, -0.0199]

###

Test system: RKN (Other Solid Carcinomas)
assay-details: combination Emax (second highest fraction inhibited in the dose matrix, 72 h); higher = more inhibition; extreme values may be limits of the assay
Exercise: for every item that follows, state its recorded combination Emax.
Numbers only.

molecule: NC1(C(=O)N[C@@H](CCO)c2ccc(Cl)cc2)CCN(c2ncnc3[nH]ccc23)CC1 [Capivasertib] + C[C@@H]1COCCN1C2=NC(=NC(=C2)C3(CC3)[S@](=N)(=O)C)C4=C5C=CNC5=NC=C4 [AZD6738] (first compound max 10 µM, 7x7, partner max 10 µM)
value-reported: 0.272

I would be grateful if you could share the reported combination Emax for C[C@@H](c1ccc2nccn2c1)n1nnc2ncc(-c3cnn(C)c3)nc21 [Savolitinib] + CC1(C)CCC(CN2CCN(c3ccc(C(=O)NS(=O)(=O)c4ccc(NCC5CCOCC5)c([N+](=O)[O-])c4)c(Oc4cnc5[nH]ccc5c4)c3)CC2)=C(c2ccc(Cl)cc2)C1 [Venetoclax] (first compound max 1 µM, 7x7, partner max 1 µM) . 0.195
